Target: recombinant PRL-3 (Homo sapiens, UniProt O75365)
Construct: 6xHis (N, cleaved yes); made in house; host or cells: E. coli One Shot BL21 Star
Sequence (O75365 whole entry): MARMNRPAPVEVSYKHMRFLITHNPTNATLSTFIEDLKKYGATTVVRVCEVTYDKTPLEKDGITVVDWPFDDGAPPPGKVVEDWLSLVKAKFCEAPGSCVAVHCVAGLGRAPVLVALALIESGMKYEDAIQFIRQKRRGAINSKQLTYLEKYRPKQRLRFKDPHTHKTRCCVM
Test: In vitro phosphatase assay (DiFMUP hydrolysis), PRL-3; further: test concentration or dose not given here
Assay type: biochemical
Settings: FDA-approved drug screen; compared to DMSO
Where a name gives a salt, the structure may show the parent alone.
recorded metric: % Phosphatase Activity (compared to DMSO) PRL-3 (%)
Respond with the bare value in %.

Requested field: % Phosphatase Activity (compared to DMSO) PRL-3. Item: O=C(c1ccccc1)c1ccc2n1CCC2C(=O)O (stereo not drawn)
78

Requested field: % Phosphatase Activity (compared to DMSO) PRL-3. Item: Cc1c(C(N)=O)cc([N+](=O)[O-])cc1[N+](=O)[O-] [Dinitolmide]
90

Requested field: % Phosphatase Activity (compared to DMSO) PRL-3. Item: O=C1C(CC[S+]([O-])c2ccccc2)C(=O)N(c2ccccc2)N1c1ccccc1 (racemic) [(+/-)-Sulfinpyrazone]
82

Requested field: % Phosphatase Activity (compared to DMSO) PRL-3. Item: `O=C(c1cc(Cc2n[nH]c(=O)c3ccccc23)ccc1F)N1CCN(C(=O)C2CC2)CC1`
91

Requested field: % Phosphatase Activity (compared to DMSO) PRL-3. Item: CC(C)(C)NC(=O)[C@H]1CC[C@H]2[C@@H]3CC[C@H]4NC(=O)C=C[C@]4(C)[C@H]3CC[C@]12C [Finasteride]
81

Requested field: % Phosphatase Activity (compared to DMSO) PRL-3. Item: `Nc1ncn([C@@H]2O[C@H](CO)[C@@H](O)[C@H]2O)c(=O)n1`
89

Requested field: % Phosphatase Activity (compared to DMSO) PRL-3. Item: `C#C[C@]1(O)CC[C@H]2[C@@H]3CCC4=CC(=O)CC[C@@H]4[C@H]3CC[C@@]21C`
79

Requested field: % Phosphatase Activity (compared to DMSO) PRL-3. Item: `O=C([O-])Cc1ccccc1Nc1c(Cl)cccc1Cl.[K+]`
99

Requested field: % Phosphatase Activity (compared to DMSO) PRL-3. Item: `C#Cc1cccc(Nc2ncnc3cc(OCCOC)c(OCCOC)cc23)c1`
123

Requested field: % Phosphatase Activity (compared to DMSO) PRL-3. Item: `COC(=O)Nc1nc2cc(C(=O)c3ccc(F)cc3)ccc2[nH]1`
92

Requested field: % Phosphatase Activity (compared to DMSO) PRL-3. Item: `C[C@H](CCC(=O)O)[C@H]1CC[C@H]2[C@@H]3[C@H](O)C[C@@H]4C[C@H](O)CC[C@]4(C)[C@H]3CC[C@]12C`
115

Requested field: % Phosphatase Activity (compared to DMSO) PRL-3. Item: CN(Cc1cc(Br)cc(Br)c1N)C1CCCCC1 [Bromhexine HCl]
86

Requested field: % Phosphatase Activity (compared to DMSO) PRL-3. Item: NCC[C@H](O)C(=O)N[C@@H]1C[C@H](N)[C@@H](O[C@H]2O[C@H](CN)[C@@H](O)[C@H](O)[C@H]2O)[C@H](O)[C@H]1O[C@H]1O[C@H](CO)[C@@H](O)[C@H](N)[C@H]1O [Amikacin hydrate]
107

Requested field: % Phosphatase Activity (compared to DMSO) PRL-3. Item: `CC[C@@H]([C@H](C)O)n1ncn(-c2ccc(N3CCN(c4ccc(OC[C@@H]5CO[C@@](Cn6cncn6)(c6ccc(F)cc6F)C5)cc4)CC3)cc2)c1=O`
73

Requested field: % Phosphatase Activity (compared to DMSO) PRL-3. Item: `C[N+]1(C)[C@@H]2C[C@@H](OC(=O)[C@H](CO)c3ccccc3)C[C@H]1[C@@H]1O[C@@H]12`
88

Requested field: % Phosphatase Activity (compared to DMSO) PRL-3. Item: `C[C@H]1C[C@@H]2[C@H]([C@@H](O)C[C@@]3(C)[C@H]2CC[C@]3(O)C(=O)CO)[C@@]2(C)C=CC(=O)C=C12`
92

Requested field: % Phosphatase Activity (compared to DMSO) PRL-3. Item: `C#C[C@]1(O)CC[C@H]2[C@@H]3CCc4cc(OC)ccc4[C@H]3CC[C@@]21C`
77

Requested field: % Phosphatase Activity (compared to DMSO) PRL-3. Item: Clc1ccc(CCC(Cn2ccnc2)Sc2c(Cl)cccc2Cl)cc1 (stereo not drawn) [Butoconazole nitrate]
98
